- Assay Info: Metabolic stability in NOD/SCID mouse plasma up to 24 hrs by reverse-phase HPLC analysis
- Format: ADME, cell-free
- Measurement Parameters: read-out: Stability
Readout Name: remaining at 24 h

Fill in the blank: the reported remaining at 24 h of CCCCCOC(=O)Nc1ccc(COC(=O)N2CO[C@@H]3[C@H](C)O[C@@H](O[C@H]4C[C@](O)(C(=O)CO)Cc5c(O)c6c(c(O)c54)C(=O)c4c(OC)cccc4C6=O)C[C@@H]32)cc1 is ____.
16%

* * *

- Assay Info: Toxicity in pentyl PABC-doxazolidine-treated NOD/SCID mouse xenografted with human HepG2 cells expressing CES2 gene assessed as mortality rate at 5 mg/kg, iv administered on day 52 after tumor implantation
- Format: organism-based
- Design: dose 5 mg/kg, route intravenous
- Measurement Parameters: in vivo, read-out: Activity
Readout Name: mortality (%)
Your answer should be a plain number; it is taken to be in %.

Fill in the blank: the reported mortality of CCCCCOC(=O)Nc1ccc(COC(=O)N2CO[C@@H]3[C@H](C)O[C@@H](O[C@H]4C[C@](O)(C(=O)CO)Cc5c(O)c6c(c(O)c54)C(=O)c4c(OC)cccc4C6=O)C[C@@H]32)cc1 is ____.
60

* * *

- Organism: Homo sapiens
- Assay Info: Metabolic stability in human plasma up to 24 hrs by reverse-phase HPLC analysis
Readout Name: remaining at 24 h (%)
Your answer should be a plain number; it is taken to be in %.

Fill in the blank: the reported remaining at 24 h of CCCCCOC(=O)Nc1ccc(COC(=O)N2CO[C@@H]3[C@H](C)O[C@@H](O[C@H]4C[C@](O)(C(=O)CO)Cc5c(O)c6c(c(O)c54)C(=O)c4c(OC)cccc4C6=O)C[C@@H]32)cc1 is ____.
75

The reported measurements were obtained from ChEMBL document CHEMBL1153806.
